Conditions: in methanol, 293.15 K
value-kind: solubility (mole fraction)
Just the number.

Which solubility (mole fraction) is listed for `O.O=C1NC(=O)C(=O)C(=O)N1` ?
0.105

----------
Conditions: in water, 293.15 K
value-kind: solubility (mole fraction)
Just the number.

Which solubility (mole fraction) is listed for `O.O=C1NC(=O)C(=O)C(=O)N1` ?
0.0377

----------
Conditions: in THF, 303.15 K
value-kind: solubility (mole fraction)
Just the number.

Which solubility (mole fraction) is listed for `O.O=C1NC(=O)C(=O)C(=O)N1` ?
0.0638

----------
Details: in ethylene glycol, 318.15 K
value-kind: solubility (mole fraction)
Just the number.

Which solubility (mole fraction) is listed for `O.O=C1NC(=O)C(=O)C(=O)N1` ?
0.0283
